Where these numbers come from: patent US20060183194A1

target.desc: T1, ErbB-2/3 receptor-Ig fusion (human, UniProt P04626 23-652; P21860 20-643)
T1 construct: extracellular domain;range 224-C-terminus; Co-expressed in HEK-293; also called ErbB-2/3-Ig; 2/3-heterodimer; not shown: human IgG heavy chain constant region from His224 (hinge) on
method.notes: phage ELISA; soluble ErbB-2/3-Ig competes phage off plate-bound ErbB-2/3-Ig
pEC50: −log10 of the molar value.
property: pEC50

HRG11: HRG-β1 177-230 displayed on phage, GGGSGGG linker to pIII 247 (ligand, phage M13, range 247-C-terminus; Monovalent phage display; also called pHRG11-g3) SHLVKCAEKEKTFCVNGGECFMVKDLSNPSRYLCKCPNEFTGDRCQNYVMASFYGGGSGGGGGSGGGSGSGDFDYEKMANANKGAMTENADENALQSDAKGKLDSVATDYGAAIDGFIGDVSGLANGNGATGDFAGSNSQMAQVGDGDNSPLMNNFRQYLPSLPQSVECRPFVFSAGKPYEFSIDCDKINLFRGVFAFLLYVATFMYVFSTFANILRNKES :: 7.72
HRG6: HRG-β1 177-227 displayed on phage, fused to pIII 247 (ligand, phage M13, range 247-C-terminus; also called pHRG6-g3) SHLVKCAEKEKTFCVNGGECFMVKDLSNPSRYLCKCPNEFTGDRCQNYVMAGGSGGGSGSGDFDYEKMANANKGAMTENADENALQSDAKGKLDSVATDYGAAIDGFIGDVSGLANGNGATGDFAGSNSQMAQVGDGDNSPLMNNFRQYLPSLPQSVECRPFVFSAGKPYEFSIDCDKINLFRGVFAFLLYVATFMYVFSTFANILRNKES :: 7.40
HRG5: HRG-β1 147-244 displayed on phage, fused to pIII 247 (ligand, phage M13, range 247-C-terminus; Monovalent phage display; also called pHRG5-g3) YVSSESPIRISVSTEGANTSSSTSTSTTGTSHLVKCAEKEKTFCVNGGECFMVKDLSNPSRYLCKCPNEFTGDRCQNYVMASFYKHLGIEFMEAEELYGGSGGGSGSGDFDYEKMANANKGAMTENADENALQSDAKGKLDSVATDYGAAIDGFIGDVSGLANGNGATGDFAGSNSQMAQVGDGDNSPLMNNFRQYLPSLPQSVECRPFVFSAGKPYEFSIDCDKINLFRGVFAFLLYVATFMYVFSTFANILRNKES :: 8.33
